Where these numbers come from: patent US20260234099A1

experimentalTarget: UniProt P34972
procedureDetails: CB2 receptor binding affinity (Ki)
Design: CB2 receptor Ki; CB2 receptor Ki (PMSF); other: with PMSF
testSettings: read-out: CB2 receptor Ki
Protocol: Some disclosed compounds were tested for CB1 and CB2 receptor binding affinity (Tables 1, 2, 3, 4, 5). As used herein “binding affinity” is represented by the Ki value. The Ki value is the affinity constant and describes the affinity of the compound for the receptor. […] A detailed description of the methods used to test “binding affinity” of compounds is given in Makriyannis, et al., US 2007/0135388 the content of which is hereby incorporated by reference.
pKi: −log10 of the molar value.
Exercise: state measured pKi for each of the compounds provided.

QUERY: So what's the measured pKi for this one? CCCCC/C=C\C/C=C\C/C=C\C/C=C\C1CC[C@@H](C(=O)NCCO)C1 (some centres unmarked) [Compound 4.2.2e]
RESULT: 6.00 to 6.70

QUERY: So what's the measured pKi for this one? C[C@H](/C=C\C/C=C\C/C=C\CCCC(=O)N[C@H](C)CO)/C=C\CCCCCO [Compound 4.7.2]
RESULT: 6.70 to 8.00

QUERY: So what's the measured pKi for this one? CCCCCc1ccccc1C/C=C\C/C=C\C/C=C\CCCC(=O)N[C@H](C)CO [Compound 4.6.3]
RESULT: 6.70 to 8.00

QUERY: So what's the measured pKi for this one? CCCCC/C=C\C/C=C\C/C=C\C/C=C\C1CC(C(=O)NCCO)C1 (centres unmarked) [Compound 4.2.2c]
RESULT: 6.00 to 6.70

QUERY: So what's the measured pKi for this one? C[C@H](/C=C\C/C=C\C/C=C\CCCC(=O)N[C@H](C)CO)/C=C\CCCCCC#N [Compound 4.1.5a]
RESULT: 8.00 to 11.00
